Assay: Toxicity liver stage against HepG2, at 10uM
Assay type: cell-based
Design: test concentration 10 uM, cell line HepG2-A16-CD81EGFP
Settings: human, HepG2-A16-CD81EGFP cells; read-out: INHIBITION
Would you kindly list cytotoxicity at 10 µM for each of these compounds?
Answers are plain numbers, in %.

Example compounds with recorded cytotoxicity at 10 µM:
[
  {
    "Compound": "Cc1nc(C(=O)N2CCN(C(=O)N(C)C)[C@@H]3CS(=O)(=O)C[C@@H]32)cs1",
    "Number": 4.96
  },
  {
    "Compound": "Cn1cc(C(=O)Nc2cccc(CCN3CCCC3)c2)ccc1=O",
    "Number": 7.76
  },
  {
    "Compound": "CC(=O)N[C@@H]1C[C@H](c2ccc(OCCO)cc2)OC2(CCOCC2)C1",
    "Number": -21.2
  },
  {
    "Compound": "CN(C)C(=O)N1CCc2c(COCC3CC3)cncc2C1",
    "Number": -68.2
  },
  {
    "Compound": "CCOc1ccc(CNCc2cccnc2N(C)C)cc1",
    "Number": -6.5
  },
  {
    "Compound": "COc1cc(C)c(C(C)NC(=O)NCCCn2cncn2)cc1OC (stereo not given)",
    "Number": -16.2
  },
  {
    "Compound": "CN1CCCC(Cc2cncc(C(=O)NCC3CC3)c2)C1 (stereo not given)",
    "Number": -3.99
  },
  {
    "Compound": "CN1CCN([C@@H]2CN(C(=O)Cc3ccsc3)[C@@H]3CCCO[C@H]23)CC1",
    "Number": 2.87
  },
  {
    "Compound": "COc1ccc2c(c1)OCC(CNC(=O)c1cc(C(C)C)on1)C2 (stereo not given)",
    "Number": 0.0723
  }
]

Then there is this compound:
Task: Look up cytotoxicity at 10 µM: `COc1cccc2ccc(CN3CCN(c4cccnc4)CC3)nc12`
Output: -8.66

====

Assay: Toxicity liver stage against HepG2, at 10uM
Type: cell-based
Parameters: test concentration 10 uM, cell line HepG2-A16-CD81EGFP
Conditions: human, HepG2-A16-CD81EGFP cells; read-out: INHIBITION
Would you kindly list cytotoxicity at 10 µM for each of these molecules?
I'd appreciate it if you wrote the number followed by its unit.

[
  {
    "Molecule": "Cc1cc(C)n(CC2CCCCN2CC(=O)Nc2cccnc2)n1 (stereo unspecified)",
    "cytotoxicity at 10 µM": "6.46%"
  },
  {
    "Molecule": "COC(=O)c1cc2n(n1)CCN(C(=O)c1csc(CN(C)C)n1)C2",
    "cytotoxicity at 10 µM": "-8.44%"
  },
  {
    "Molecule": "CCCS(=O)(=O)N1CCOC2(CCCN(c3ncc(F)cn3)C2)C1 (stereo unspecified)",
    "cytotoxicity at 10 µM": "8.22%"
  },
  {
    "Molecule": "COCC(=O)N1CCc2nc(C(=O)N(C)C)sc2CC1",
    "cytotoxicity at 10 µM": "15.5%"
  },
  {
    "Molecule": "CCN(C(=O)c1ccc2c(c1)OCO2)C1CC(=O)NC1=O (stereo unspecified)",
    "cytotoxicity at 10 µM": "-3.04%"
  }
]

Batch of 4 molecules: report cytotoxicity at 10 µM for each.
1. COc1c(C)cnc(CNCC(C)C)c1C
2. CN(C)CCNC(=O)c1ccc(S(=O)(=O)N[C@@H]2CCNC2)cc1
3. COc1ccc(N2CCN(C(=O)c3cc(=O)c(OC)c[nH]3)CC2)cc1
4. CNC(=O)c1cc(NC(=O)NCC2CCS(=O)(=O)C2)ccc1OC (stereo unspecified)

Output:
1. -0.135%
2. -49.2%
3. -0.244%
4. 9.57%
